system: HCT-116; experiment: cells; details: Homo sapiens, HCT-116, 48 h
pIC50: −log10 of the molar value.
Metric name: pIC50

a. Cc1cnc(NC(=O)Nc2cccc3c2C2CC4(CCN2C3=O)SCCS4)cn1 (stereo not drawn)
b. CO[C@@H]1CCN2C(=O)c3cccc(NC(=O)Nc4cc(C)ccn4)c3[C@@H]2C1 (relative stereo)
c. O=C(Nc1cnccn1)Nc1cccc2c1C1CC3(CCN1C2=O)SCCS3 (stereo not drawn)
Put the above compounds in order of rising pIC50, beginning with the smallest. I'd appreciate it if you listed the labels in the requested order.
a, c, b

====

biological target: Glycogen synthase kinase-3 (Sus scrofa, UniProt B2LUN4+I6LNT8); experiment: Inhibition of porcine brain GSK3alpha/beta using GS-1 substrate and ATP
Metric name: IC50 (µM)

Worked examples, 4 compounds total:
Compound: O=C(Nc1cnccn1)Nc1cccc2c1C1CC3(CCN1C2=O)SCCS3 (centres undefined)
Unit: µM
IC50: 0.044

Compound: Cc1cccc(NC(=O)Nc2cccc3c2C2CC4(CCN2C3=O)SCCS4)n1 (centres undefined)
Unit: µM
IC50: 2

Compound: COc1cc(NC(=O)Nc2cccc3c2C2CC4(CCN2C3=O)SCCS4)nc2ccccc12 (centres undefined)
Unit: µM
IC50: 4

Compound: COc1cc(NC(=O)Nc2cccc3c2[C@@H]2C[C@H](O)CCN2C3=O)nc2ccccc12 (relative stereo)
Unit: µM
IC50: 0.035

A. O=C(Nc1ccccn1)Nc1cccc2c1C1CC3(CCN1C2=O)SCCS3 (centres undefined)
B. Cc1cccc(NC(=O)Nc2cccc3c2C2CC4(CCN2C3=O)OCCO4)n1 (centres undefined)
Higher IC50: A or B ? Answer = label.
B

a. Cc1cnc(NC(=O)Nc2cccc3c2C2CC4(CCN2C3=O)SCCS4)cn1 (centres undefined)
b. COc1cc(NC(=O)Nc2cccc3c2C2CC4(CCN2C3=O)OCCO4)nc2ccccc12 (centres undefined)
Higher IC50: a or b ? Answer = label.
b
